The reported measurements were obtained from ChEMBL document CHEMBL5303573.

EXPERIMENTAL SYSTEM: Acetyl esterase (Acetylxylosidase) (Bacteroides thetaiotaomicron)
Sequence (Q8ABF8 whole entry, change not shown): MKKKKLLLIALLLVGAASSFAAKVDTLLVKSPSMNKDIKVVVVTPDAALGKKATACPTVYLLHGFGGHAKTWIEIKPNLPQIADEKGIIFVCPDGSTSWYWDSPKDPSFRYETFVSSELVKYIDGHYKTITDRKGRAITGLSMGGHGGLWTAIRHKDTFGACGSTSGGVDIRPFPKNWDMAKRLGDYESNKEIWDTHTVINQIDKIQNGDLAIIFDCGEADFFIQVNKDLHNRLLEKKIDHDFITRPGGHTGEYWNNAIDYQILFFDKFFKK
PROTOCOL: The drug is tested on Bacteroides thetaiotaomicron strain: VPI-5482 for biotransformation. The drug concentrations were measured before and after a 12-h incubation by liquid-chromatography-coupled mass spectrometry (LC–MS)
Assay type: ADME
Parameters: dose 2 uM
PARTICULARS: 2 µM
MEASUREMENT LABEL: Bacterial Biotransformation

[[record]]
molecule = "C#C[C@]1(O)CC[C@H]2[C@@H]3CCC4=Cc5oncc5C[C@]4(C)[C@H]3CC[C@@]21C"
test_result = "Compound NOT metabolized"

[[record]]
molecule = "C#C[C@]1(OC(C)=O)CC[C@H]2[C@@H]3CCC4=CC(=O)CC[C@@H]4[C@H]3CC[C@@]21C [NORETHINDRONE ACETATE]"
test_result = "Compound NOT metabolized"

[[record]]
molecule = "C[C@]12CCC(=O)C=C1[C@@H]1C[C@@H]1[C@H]1[C@@H]3[C@@H]4C[C@@H]4[C@@]4(CCC(=O)O4)[C@@]3(C)CC[C@@H]12"
test_result = "Compound NOT metabolized"


====

PROTOCOL: The drug is tested on Bacteroides uniformis strain: ATCC8492 for biotransformation. The drug concentrations were measured before and after a 12-h incubation by liquid-chromatography-coupled mass spectrometry (LC–MS)
PARTICULARS: 2 µM
MEASUREMENT LABEL: Bacterial Biotransformation

[[record]]
compound = "Cc1ccc(NC(=O)c2ccc(CN3CCN(C)CC3)cc2)cc1Nc1nccc(-c2cccnc2)n1 [IMATINIB]"
measurement_label = "Bacterial Biotransformation"
test_result = "Compound NOT metabolized"

[[record]]
compound = "COc1ccccc1OCC(O)CN1CCN(CC(=O)Nc2c(C)cccc2C)CC1 (centres undefined) [RANOLAZINE]"
measurement_label = "Bacterial Biotransformation"
test_result = "Compound NOT metabolized"

[[record]]
compound = "CCN(C)C(=O)Oc1cccc([C@H](C)N(C)C)c1.O=C(O)C(O)C(O)C(=O)O [RIVASTIGMINE TARTRATE]"
measurement_label = "Bacterial Biotransformation"
test_result = "Compound NOT metabolized"


====

PROTOCOL: The drug is tested on the gut metagenome community of MV21 with ENA study accession number: PRJEB31790 and ENA sample accession number: SAMEA5537502 for biotransformation. The drug concentrations were measured over 9 timepoints collected between 0 and 24 hours of incubation by liquid-chromatography-coupled mass spectrometry (LC–MS)
Type: ADME
Design: dose 2 uM, timepoint 0, 1, 2, 4, 6, 8, 12, 18, 24 hours
PARTICULARS: 2 µM
MEASUREMENT LABEL: Bacterial Biotransformation

[[record]]
molecule = "CC(=O)OCC(CCn1cnc2cnc(N)nc21)COC(C)=O"
measurement_label = "Bacterial Biotransformation"
test_result = "Compound metabolized"

[[record]]
molecule = "C#C[C@]1(OC(C)=O)CC[C@H]2[C@@H]3CCC4=CC(=O)CC[C@@H]4[C@H]3CC[C@@]21C [NORETHINDRONE ACETATE]"
measurement_label = "Bacterial Biotransformation"
test_result = "Compound metabolized"

[[record]]
molecule = "C[C@@H]1C[C@H]2[C@@H]3CCC4=CC(=O)C=C[C@]4(C)[C@@]3(F)[C@@H](O)C[C@]2(C)[C@@]1(O)C(=O)CO"
measurement_label = "Bacterial Biotransformation"
test_result = "Compound NOT metabolized"

[[record]]
molecule = "COc1ccc([C@@H]2Sc3ccccc3N(CCN(C)C)C(=O)[C@@H]2OC(C)=O)cc1"
measurement_label = "Bacterial Biotransformation"
test_result = "Compound NOT metabolized"


====

PARTICULARS: segatella copri, 12 h, 2 µM
Description: The drug is tested on Prevotella copri strain: DSM18205 for biotransformation. The drug concentrations were measured before and after a 12-h incubation by liquid-chromatography-coupled mass spectrometry (LC–MS)
MEASUREMENT LABEL: Bacterial Biotransformation

[[record]]
molecule = "CC(C)[C@H]1CC[C@H](C(=O)N[C@H](Cc2ccccc2)C(=O)O)CC1 [NATEGLINIDE]"
test_result = "Compound NOT metabolized"

[[record]]
molecule = "CCN(CC)CCNC(=O)c1ccc(NC(C)=O)cc1 [ACECAINIDE]"
test_result = "Compound NOT metabolized"

[[record]]
molecule = "CC(=O)O[C@]1(C(C)=O)CC[C@H]2[C@@H]3C=C(Cl)C4=CC(=O)[C@@H]5C[C@@H]5[C@]4(C)[C@H]3CC[C@@]21C [CYPROTERONE ACETATE]"
test_result = "Compound NOT metabolized"

[[record]]
molecule = "C=C[C@H]1CN2CC[C@H]1C[C@H]2[C@H](O)c1ccnc2ccc(OC)cc12.C=C[C@H]1CN2CC[C@H]1C[C@H]2[C@H](O)c1ccnc2ccc(OC)cc12.O.O.O=S(=O)(O)O [QUININE SULFATE]"
test_result = "Compound NOT metabolized"

[[record]]
molecule = "CC(NC(C)(C)C)C(=O)c1cccc(Cl)c1 (configuration not stated)"
test_result = "Compound NOT metabolized"

[[record]]
molecule = "CC(=O)OCC(=O)NCCCOc1cccc(CN2CCCCC2)c1 [ROXATIDINE ACETATE]"
test_result = "Compound metabolized"

[[record]]
molecule = "CCN(CC)CCOCCOC(=O)C1(c2ccccc2)CCCC1.O=C(O)CC(O)(CC(=O)O)C(=O)O [CARBETAPENTANE CITRATE]"
test_result = "Compound metabolized"


====

EXPERIMENTAL SYSTEM: Esterase (Phocaeicola dorei, UniProt B6W2J6)
Sequence (B6W2J6 whole entry): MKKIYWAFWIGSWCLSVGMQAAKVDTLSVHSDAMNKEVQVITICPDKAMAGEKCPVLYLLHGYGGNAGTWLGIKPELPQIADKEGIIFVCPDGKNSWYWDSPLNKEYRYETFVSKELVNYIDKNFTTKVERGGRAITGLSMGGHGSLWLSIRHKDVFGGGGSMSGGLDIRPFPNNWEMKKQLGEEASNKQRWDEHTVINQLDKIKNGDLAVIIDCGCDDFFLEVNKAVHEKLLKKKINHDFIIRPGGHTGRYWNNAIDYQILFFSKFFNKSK
PROTOCOL: The drug is tested on Bacteroides dorei strain: DSM17855 for biotransformation. The drug concentrations were measured before and after a 12-h incubation by liquid-chromatography-coupled mass spectrometry (LC–MS)
Assay type: ADME
Set-up: dose 2 uM
PARTICULARS: 2 µM
MEASUREMENT LABEL: Bacterial Biotransformation

[[record]]
compound = "CC(=O)OCC(CCn1cnc2cnc(N)nc21)COC(C)=O [FAMCICLOVIR]"
test_result = "Compound metabolized"

[[record]]
compound = "C[C@@H]1CC[C@H]2[C@@H](C)C(=O)O[C@@H]3O[C@@]4(C)CC[C@@H]1[C@]32OO4 [ARTEMISININ]"
test_result = "Compound NOT metabolized"

[[record]]
compound = "CC(=O)OCC(=O)[C@@]12N=C(C)O[C@@H]1C[C@H]1[C@@H]3CCC4=CC(=O)C=C[C@]4(C)[C@H]3[C@@H](O)C[C@@]12C [DEFLAZACORT]"
test_result = "Compound NOT metabolized"

[[record]]
compound = "C#C[C@]1(O)CC[C@H]2[C@@H]3CCC4=CC(=O)CC[C@@H]4[C@H]3CC[C@@]21CC [LEVONORGESTREL]"
test_result = "Compound NOT metabolized"

[[record]]
compound = "CC(=O)Nc1ccc(OC(C)=O)cc1 [DIACETAMATE]"
test_result = "Compound metabolized"


====

PARTICULARS: segatella copri, 12 h, 2 µM
MEASUREMENT LABEL: Bacterial Biotransformation

[[record]]
molecule = "CNC(=C[N+](=O)[O-])NCCSCc1ccc(CN(C)C)o1"
measurement_label = "Bacterial Biotransformation"
test_result = "Compound metabolized"

[[record]]
molecule = "CCCc1nn(C)c2c(=O)[nH]c(-c3cc(S(=O)(=O)N4CCN(C)CC4)ccc3OCC)nc12.O=C(O)CC(O)(CC(=O)O)C(=O)O [SILDENAFIL CITRATE]"
measurement_label = "Bacterial Biotransformation"
test_result = "Compound NOT metabolized"

[[record]]
molecule = "O=C1NCC2(CCN(CCc3ccccc3)CC2)O1 [FENSPIRIDE]"
measurement_label = "Bacterial Biotransformation"
test_result = "Compound metabolized"

[[record]]
molecule = "CCN(C(C)=O)c1cccc(-c2ccnc3c(C#N)cnn23)c1"
measurement_label = "Bacterial Biotransformation"
test_result = "Compound NOT metabolized"

[[record]]
molecule = "CCN(CC)C(=O)C1(c2ccccc2)CC1CN (centres undefined)"
measurement_label = "Bacterial Biotransformation"
test_result = "Compound NOT metabolized"

[[record]]
molecule = "COc1cc(NC(C)CCCN)c2ncccc2c1.O=P(O)(O)O.O=P(O)(O)O (centres undefined) [PRIMAQUINE PHOSPHATE]"
measurement_label = "Bacterial Biotransformation"
test_result = "Compound metabolized"

[[record]]
molecule = "CC(=O)OCC(CCn1cnc2cnc(N)nc21)COC(C)=O"
measurement_label = "Bacterial Biotransformation"
test_result = "Compound metabolized"

[[record]]
molecule = "COc1ccnc(C[S+]([O-])c2nc3ccc(OC(F)F)cc3[nH]2)c1OC (centres undefined)"
measurement_label = "Bacterial Biotransformation"
test_result = "Compound metabolized"

[[record]]
molecule = "Cc1ccc(NC(=O)c2ccc(CN3CCN(C)CC3)cc2)cc1Nc1nccc(-c2cccnc2)n1"
measurement_label = "Bacterial Biotransformation"
test_result = "Compound NOT metabolized"


====

PARTICULARS: enterocloster bolteae, 12 h, 2 µM
Description: The drug is tested on Clostridium bolteae strain: ATCCBAA-613 for biotransformation. The drug concentrations were measured before and after a 12-h incubation by liquid-chromatography-coupled mass spectrometry (LC–MS)
MEASUREMENT LABEL: Bacterial Biotransformation

[[record]]
molecule = "CCCC1O[C@@H]2C[C@H]3[C@@H]4CCC5=CC(=O)C=C[C@]5(C)[C@H]4[C@@H](O)C[C@]3(C)[C@]2(C(=O)CO)O1 (some centres undefined) [BUDESONIDE]"
measurement_label = "Bacterial Biotransformation"
test_result = "Compound NOT metabolized"

[[record]]
molecule = "COc1ccccc1OCC(O)COC(N)=O (centres undefined)"
measurement_label = "Bacterial Biotransformation"
test_result = "Compound NOT metabolized"

[[record]]
molecule = "CCN1CCCC1CNC(=O)c1cc(S(N)(=O)=O)ccc1OC (centres undefined) [SULPIRIDE]"
measurement_label = "Bacterial Biotransformation"
test_result = "Compound NOT metabolized"

